Below is a list of entries, each paired with its recorded sensor-assay potency score (higher = more potent) value.
biological target: COPE; assay: pooled miR-30 sensor sort-seq; sequence = guide strand; settings: shRNA; also: reference of the scale not given here
Reply with just the number.

Worked set:
INSERT INTO measurements (polymer_sequence, endpoint_value) VALUES
  ('TTCTTTACGTCGAACAGCTCGT', -0.53),
  ('TTCTCTTCAGCTCCTTCCGGGC', -0.99),
  ('TTGACCAGCGTCTCTGGGTAGC', -0.621),
  ('ATTCTCTTCAGCTCCTTCCGGG', -0.00872),
  ('TCAGCTGGGACAGGTATCGGTT', -0.759);

Identify measured sensor-assay potency score (higher = more potent) corresponding to TTGATAGCTTCACCCGCTGCGC -1.31

In one line, give reported sensor-assay potency score (higher = more potent) of the entry TTTACGTCGAACAGCTCGTCTA . -1.05

---

target: CDC42SE1; experiment: pooled miR-30 sensor sort-seq; sequence = guide strand; conditions: shRNA
quantity name: sensor-assay potency score (higher = more potent)
Kindly provide the number alone.

INSERT INTO results (polymer_sequence, endpoint_value) VALUES
  ('TTGCTCCATGGCCTATCTCGGT', -1.82);

# return sensor-assay potency score (higher = more potent) of TTCTCTTCTTCTTCGGCTGGGG (system: CDC42SE1) -0.102

// output sensor-assay potency score (higher = more potent); input TGAACTGCACCTGTCATGGCAA ; system CDC42SE1 -0.419

Fetch value of sensor-assay potency score (higher = more potent) on CDC42SE1 for ATCATGGTCCGGTCAATCCGTC . -1.39

Would you please give the reported sensor-assay potency score (higher = more potent) of TGCTCCATGGCCTATCTCGGTT with CDC42SE1? -1.52

Under CDC42SE1: report sensor-assay potency score (higher = more potent) of TGGGGTTTCTCTACCACACAGC . -1.01

Write down the reported sensor-assay potency score (higher = more potent) (system: CDC42SE1) of TCATGGCAAGTCCATCTCCGGC -1.88

Param request: sensor-assay potency score (higher = more potent) | system CDC42SE1 | item TCATCTGCTCCTGAACTGCACC -1.23

---

molecular target: KRI1; assay: pooled miR-30 sensor sort-seq; sequence = guide strand; conditions: shRNA
quantity name: sensor-assay potency score (higher = more potent)
// no unit string in output, number only

Name the recorded sensor-assay potency score (higher = more potent) of the item TTGAGCTCTTCCTGCTTCTTTG in your answer. -1.32

Please indicate sensor-assay potency score (higher = more potent) recorded for TTCTTTAGGGAGCACCACCGGT -1.34

---

molecular target: EMP1; assay: pooled miR-30 sensor sort-seq; sequence = guide strand; details: shRNA
Rule: sensor-assay potency score (higher = more potent) of -1 or more gives criterion met; anything lower gives criterion not met.

These recorded examples may help you get a feel for the data.
INSERT INTO measurements (polymer_sequence, measured_on, assigned_class) VALUES
  ('ATTCGCATAATGACTAGTGTAG', 'EMP1', 'criterion met'),
  ('ATAATGACTAGTGTAGATGGAC', 'EMP1', 'criterion met');

Is it the case that ATCTACCGTATTGGAAACCAAC has sensor-assay potency score (higher = more potent) reaching or exceeding -1? criterion not met

Determine whether this sequence has sensor-assay potency score (higher = more potent) no lower than -1: TACAGTTTTTCCAAAGACCTAC criterion met

---

target: SRSF6; assay: pooled miR-30 sensor sort-seq; sequence = guide strand; conditions: shRNA
// reported sensor-assay potency score (higher = more potent) per item
Please respond with just the number, no unit label.

Example sequences with recorded sensor-assay potency score (higher = more potent):
INSERT INTO measurements (polymer_sequence, endpoint_value) VALUES
  ('TTGACTTTGAGCGAGATCTAGA', -0.299),
  ('TTTGAGGTCTACTTCGAGGAGG', -0.608),
  ('TAGATCTGCTTCGAGAATGTGA', -0.00685),
  ('TTAGATTTGCTCTTTGATCTAG', 0.289);

Item TTGAGCGAGATCTAGAACGGGA : provide sensor-assay potency score (higher = more potent) 0.0866

Assign sensor-assay potency score (higher = more potent) to the following record: TAGATTTGCTCTTTGATCTAGA 0.174

Respond only with sensor-assay potency score (higher = more potent) recorded for TACTTCGTGACCGTCTTCTAGA -0.126

---

target: DDX49; assay: pooled miR-30 sensor sort-seq; sequence = guide strand; conditions: shRNA
Reported sensor-assay potency score (higher = more potent) values for a set of sequences
// return just the number, without any unit appended

# example entries with known answers
INSERT INTO results (polymer_sequence, endpoint_value) VALUES
  ('TTTGATCTCACACTCTCTTCGC', -0.199),
  ('TTGATCTGCTCCTCGATGGCGT', 0.0961),
  ('TTGTGGTTGATGACCACCTGTA', -0.316),
  ('TTGATGACCACCTGTACCGTAG', -0.168),
  ('TAGATGCTGGACTTGAACTTGG', -0.112);

Okay, now this sequence:
Answer with the recorded sensor-assay potency score (higher = more potent) of TCATCCATCACCAGGAAGCGGA only. -1.17

---

molecular target: SECISBP2; test: pooled miR-30 sensor sort-seq; sequence = guide strand; conditions: shRNA
quantity name: sensor-assay potency score (higher = more potent)
Write the number on its own, no unit after it.

INSERT INTO assay_data (polymer_sequence, measured_on, endpoint_value) VALUES
  ('TTTGTTGTAGGAAGGATCCGAA', 'SECISBP2', -0.00971),
  ('TTGAGAGCAAACACAAAGGGAA', 'SECISBP2', -0.174),
  ('TTTTCTTCTTAAACAGAGCTTT', 'SECISBP2', -0.323),
  ('TTTCAAACTATTCTCAGCGTAA', 'SECISBP2', -0.344),
  ('TTCGCTTATGGTAACCATCTGA', 'SECISBP2', 0.0735);

Identify measured sensor-assay potency score (higher = more potent) associated with TTTGATAACACTGCAGCTGGTT 0.27

Give reported sensor-assay potency score (higher = more potent) value for TTCACTGTCAAACTTTTGCTGA -0.0289

Please give measured sensor-assay potency score (higher = more potent) of the following entry: TTGCAGTTCAGGAAAGTCCAGT -0.458

Supply recorded sensor-assay potency score (higher = more potent) for TTGACATCTGCTGATAACTTGA here. -0.133

---

biological target: TNP2; test: pooled miR-30 sensor sort-seq; sequence = guide strand; settings: shRNA
sensor-assay potency score (higher = more potent) listing for selected sequences.
// response body must contain only the number

Worked cases, sensor-assay potency score (higher = more potent) given:
INSERT INTO measurements (polymer_sequence, endpoint_value) VALUES
  ('TCTGTCTGCAACTCTGGCTGAA', -0.415),
  ('TTTGGTGGTGGACTAGTGTTGG', -0.0566),
  ('TTTCTGTTCTTGGGGCAGCGGC', -1.14);

Write down sensor-assay potency score (higher = more potent) measured for item TTGGTTTTGTACACCTGCTGGA 0.278

Tell me measured sensor-assay potency score (higher = more potent) for TTCTTTCTGTTCTTGGGGCAGC please. -0.411

Name the recorded sensor-assay potency score (higher = more potent) of the sequence listed here: TTGCCTTCCAAGTTCTTTCTGT 0.0693

Report sensor-assay potency score (higher = more potent) for TTGTACACCTGCTGGATCCTCT -0.394

Note sensor-assay potency score (higher = more potent) for the sequence shown: TTTTGTGGCGCTTTGGTGGTGG 0.492

---

Parameter sensor-assay potency score (higher = more potent): see the listing below.
target: STMN2; assay: pooled miR-30 sensor sort-seq; sequence = guide strand; settings: shRNA
Note: the reply should be a number with no unit written.

Known sensor-assay potency score (higher = more potent) results, listed for orientation:
INSERT INTO assay_data (polymer_sequence, endpoint_value) VALUES
  ('TAAGTATAGATGTTGATGTTGC', -0.111),
  ('TTCTGAAGGACTTCTCGCTCGT', 0.283),
  ('TTTTCCTCCGCCATCTTGCTGA', -0.369),
  ('TAATAGCAGCTAGATTAGCCTC', -0.915);

Supply sensor-assay potency score (higher = more potent) value. Item: ATCATCGTAAGTATAGATGTTG -0.449

Please report the measured sensor-assay potency score (higher = more potent) for TTGATTTGCTTCACTTCCATAT -0.805

---

molecular target: CCDC102B; test: pooled miR-30 sensor sort-seq; sequence = guide strand; conditions: shRNA
quantity name: sensor-assay potency score (higher = more potent)

Consider the following illustrative entries.
INSERT INTO assay_data (polymer_sequence, endpoint_value) VALUES
  ('TTGTTGAATAAATCAACACCAT', -0.659),
  ('TAATCTATTTTTCTTATCCAAA', -1.3),
  ('TTATTCTGAGTTGTCTTCCTTC', 0.72);

Let us examine a further case.
Please indicate sensor-assay potency score (higher = more potent) recorded for TTGCATTTCATCATTATGTTGA 0.234
